Tested on: SK-MEL-5 melanoma
Assay: NCI-60 one-dose screen, 48 h (100 = growth as untreated, 0 = no growth, -100 = all killed)
Details: 10 µM unless noted
The panel holds about 83,000 compounds, 20% with a hit somewhere; the sample as a whole holds those more often.
Label y when growth is at or above 90%; anything below gets n.

These recorded examples may help you get a feel for the data.
{"columns": ["MOLECULE", "DISCRETE_LABEL"],
 "data": [
  ["CC(C)[C@H](CN)NC[C@H](C)NS(=O)(=O)c1ccc(C(C)(C)C)cc1", "n"],
  ["CC(=O)c1cccc(Nc2ncnc3ccc(NC(=O)c4ccco4)cc23)c1", "n"],
  ["CCNC(=S)N(Cc1ccccc1)Cc1ccccc1", "y"],
  ["O=C(O)Cn1ccc2ccccc21", "y"]
]}

Request: Please tell me: is the molecule CCCNC(=S)N/N=C(\C)c1ccccn1 at or over 90% in terms of growth?
Response: n

Request: Continue with COc1ccc(C2C=C(c3ccc(Cl)cc3)N=C3SC=CN32)cc1 (stereo not drawn)
Response: y

Request: Try this molecule too: COc1ccc(/C=C2\N=C(c3cccnc3)N(c3ccccc3)NC2=O)cc1
Response: y

---

Tested on: CCRF-CEM leukemia
Assay: NCI-60 one-dose screen, 48 h (100 = growth as untreated, 0 = no growth, -100 = all killed)
Settings: 10 µM unless noted
The panel holds about 83,000 compounds, 20% with a hit somewhere; the sample as a whole holds those more often.
MEASURED_METRIC: growth (%)
Give bare numbers, in %.

For each of the items listed, what is its growth?
1. Cc1ccccc1CNc1ncnc2[nH]ncc12
2. COc1ccc(NC(=O)c2ccc(C(F)(F)F)nc2Nc2ccc(Cl)cc2C)cc1Cl
3. O=C(/C=C/c1cc([N+](=O)[O-])ccc1Cl)c1ccccc1

Response:
1. 146
2. 11
3. 68.7

---

Test system: M14 melanoma
Assay: NCI-60 one-dose screen, 48 h
Conditions: 10 µM unless noted
The panel holds about 83,000 compounds, 20% with a hit somewhere; the sample as a whole holds those more often. The source made the active and inactive calls. Rule for the calls: active = growth percent below 10; inactive = the rest.
Classes to choose from: True = active, False = inactive

Consider the worked cases shown below.
{"columns": ["COMPOUND", "MEASUREMENT_TARGET", "DISCRETE_LABEL"],
 "data": [
  ["CC(C)=CCC[C@H](C)c1ccc(C)c2c1OCN(CCO)C2", "M14 melanoma", "False"],
  ["O=C(Oc1c(Cl)c(Cl)c(Cl)c(Cl)c1Cl)C1CCCN1C(=O)OCc1ccccc1 (stereo unspecified)", "M14 melanoma", "False"],
  ["CC(C)N=C1CCCC1C(=S)SSC(=S)C1CCCC1=NC(C)C (stereo unspecified)", "M14 melanoma", "False"],
  ["CCN(CC)CCCCCCCNc1cc(OC)cc2c(C)ccnc12", "M14 melanoma", "False"],
  ["CCC(C)C1NC(=O)c2nc(oc2-c2ccccc2)-c2csc(n2)-c2csc(n2)-c2nc(oc2C)-c2coc(n2)CNC(=O)C(C(C)CC)NC1=O (stereo unspecified)", "M14 melanoma", "True"],
  ["CCN(CC)CCCC(C)Nc1cnc(C(=O)Nc2cc(C)cc3cccnc23)cn1 (stereo unspecified)", "M14 melanoma", "False"],
  ["Clc1ncnc2scc(C3COc4ccccc4O3)c12 (stereo unspecified)", "M14 melanoma", "False"],
  ["CCCCCCCCCCCCCCCc1cc(O)ccc1[N+](=O)[O-]", "M14 melanoma", "False"]
]}

Request: Test call, this compound: C/C(=N\OC(=O)Nc1cccc(Cl)c1)c1ccccc1
Response: False

Request: Also CCOC(=O)C(=CNc1ccccc1Cl)C(=O)OCC ?
Response: False

Request: Also, O=C(O)/C=C(\c1nc2ccc([N+](=O)[O-])cc2[nH]1)c1cc(Cl)ccc1O please.
Response: False

Request: Input c1ccc(C(Nc2ccccn2)(c2ccccc2)c2ccccc2)cc1
Response: False

Request: Another compound to look at: Brc1cccc(-n2ncc3c(Nc4ccc(-c5nnc(-c6ccccc6)o5)cc4)ncnc32)c1
Response: False

Request: Would you mind doing COc1ccccc1/C=N\NC(=S)Nc1ccc(F)cc1 as well?
Response: False

Request: Try O=C(Nc1ccc(Cl)c(C(F)(F)F)c1)c1ccc(Nc2ccc(Cl)nn2)cc1 next.
Response: False

Request: Same again, this time with Nc1ccc(N(O)/C=C2\C=CC=CC2=O)cc1N
Response: False

Request: Likewise for CCCCCCCCCCCCCC(=S)NCCCC[C@H](NC(=O)OCc1ccccc1)C(=O)Nc1ccccc1 ?
Response: False

Request: Similarly, O=C(CN1CCN(c2ccccc2)CC1)N1CCN(c2nnc(-c3ccc(Cl)cc3)c(-c3ccc(Cl)cc3)n2)CC1 ?
Response: False

Request: CCSc1ccc([C@@H]2[C@@H](N)C(=O)N2c2cc(OC)c(OC)c(OC)c2)cc1
Response: True

Request: Now this one: CCCCNCCC(O)c1cc2ccc(C(F)(F)F)cc2c2cc(C(F)(F)F)ccc12 (stereo unspecified)
Response: True

Request: Continue with COc1ccc(/C=c2\c(=O)n(-c3ccccc3)c3nn4c(n23)=NNC42CCCCC2)cc1
Response: False

Request: Try CCN(C(=O)Nc1cccc2ccccc12)c1ccccc1 next.
Response: False

Request: Likewise for CCCCCCCCCCC(C(O)c1ccccc1)N1CCCCC1 (stereo unspecified) ?
Response: True

Request: Similarly, COc1ccc(/C=C2\N=C(c3cccnc3)N(c3ccccc3)NC2=O)cc1 ?
Response: False

Request: Continue with COc1ccc(NC(=O)/C=C/c2ccc(Cl)c(Cl)c2)cn1
Response: False

Request: Next compound: C=CCn1c(C)nc2cc(Nc3nc(N4CCOCC4)nc4nc[nH]c34)ccc21
Response: False

Request: Same question, CN1CCN(c2ccc(N3Cc4ccccc4OC4=C3C(=O)c3c(O)ccc(O)c3C4=O)cn2)CC1 this time
Response: True

Request: Let us now turn to CCOP(=O)(O)OP(=O)(O)OCC
Response: False

Request: Then COc1cc2c(cc1OCCCOc1cc3c(cc1OC)C(=O)N1CCC[C@H]1C=N3)C=CC(C)(C)O2 ?
Response: False

Request: Lookup Fc1[nH]nc2ccc([C@@H]3Nc4ccc5[nH]ncc5c4[C@H]4C5CCC(C5)[C@@H]34)cc12 (stereo partly specified)
Response: False

Request: Further, for Oc1c(-c2cc(C(F)(F)F)[nH]n2)cc(Cl)c(OCc2ccc(Cl)cc2)c1-c1ccc(Cl)c(C(F)(F)F)c1 ?
Response: True
